test system: Escherichia coli TOP10; experiment: shrunken log2 fold change of peptide-encoding DNA abundance (4.5 h post-induction vs induction); higher = less antimicrobial activity (less host growth inhibition); settings: time post-induction: 4.5 h; library: site-saturation at positions 5, 18, 19, 20;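 also: peptides expressed intracellularly from a pBAD plasmid library in pooled LB shake-flask culture, induced with 0.3% L-arabinose, DNA abundance read by NGS, three biological replicates, DESeq2 with apeglm shrinkage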
Please respond with reported shrunken log2 fold change for every item in the list.
Output spec: single numeric token, no unit.

Given the entry RRIRPRPPRLPRPRPRPFSSPRP , report its measured shrunken log2 fold change.
-0.322

What would you report for RRIRGRPPRLPRPRPRPVNHPRP ?
0.301

What would you report for RRIRKRPPRLPRPRPRPMVLPRP ?
-0.191

What would you report for RRIRFRPPRLPRPRPRPRYYPRP ?
-0.617

What would you report for RRIRLRPPRLPRPRPRPILHPRP ?
-0.231

What would you report for RRIRYRPPRLPRPRPRPRWGPRP ?
0.12

Origin of measurements: the supplement of paper PMC9112550
